Value source: patent US6391916B1

Below is a list of entries, each paired with its recorded net DNA cut (%) value.
Tested on: φX174 RFI (Form I) double stranded DNA
measurement.protocol: DNA cleavage of supercoiled φX174 RFI (Form I) DNA, agarose gel electrophoresis and densitometry
Type: biochemical
run.parameters: At 100 μM; 37° C., TEA buffer pH 8.5, 20% DMSO
outcome.measure: net DNA cut (%)

INSERT INTO measurements (compound, experimental_value) VALUES
  ('COCC(=O)OC(C1=CC#CCCCCC#C1)c1ccccc1CO[Si](C)(C)C(C)(C)C (centres unmarked)', '4.13[c] %'),
  ('CC(=O)OC1C#CCCCCC#C/C1=C\c1ccccc1CO (centres unmarked) [Compound 35a]', '23.5[c] %'),
  ('COCC(=O)OC1C#CCCCCC#C/C1=C\c1ccccc1CO (centres unmarked) [Compound 35b]', '17.6[c] %'),
  ('COCC(=O)OC1C#CCCCCC#C/C1=C\c1ccccc1CO[Si](C)(C)C(C)(C)C (centres unmarked) [Compound 34b]', '14.4[c] %'),
  ('CC(=O)OC1C#CCCCCC#C/C1=C\c1ccccc1CO[Si](C)(C)C(C)(C)C (centres unmarked) [Compound 34a]', '10.7[c] %');
